Test system: cisplatin-resistant ovarian cancer cell line A2780cis
experiment summary: CellTiter-Blue cell viability assay, compound alone or with cisplatin or carboplatin, 24 h
Type: cell-based, human
measurement parameters: compound 50 μM + cisplatin 20 μM; 24 h
Experimental: Data were expressed as mean±standard deviation. A Student's t test was used for the comparisons between the treatment with the combination of analogs with cisplatin and with analogs alone. P<0.05 was considered statistically significant. Combination index was calculated using CompuSyn software. A value of 0.3-0.7 for the combination index indicates synergism, 0.1-0.3 indicates strong synergism, and <0.1 indicates very strong synergism (Chou, 2006). […]
reported endpoint: survival (%) of cells with compound and cisplatin (20 μM)
Answer format: numeric, % implied, no suffix.

Some entries whose results are on file:
| compound | readout number |
| --- | --- |
| O=c1c2ccccc2[nH]c(=S)n1Cc1ccccc1 | 53.2 |
| O=c1c2ccccc2[nH]c(=S)n1Cc1cccnc1 | 20.9 |
| COc1cc(-n2c(=S)[nH]c3ccccc3c2=O)c(Cl)cc1Cl [mdivi-1, reference compound] | 26.3 |

Form: item O=C(NC(=S)Nc1ccccn1)c1ccccc1 ; test system cisplatin-resistant ovarian cancer cell line A2780cis; survival (%) of cells with compound and cisplatin (20 μM): 33.4

Form: item CCCn1c(=S)[nH]c2cc(OC)c(OC)cc2c1=O ; test system cisplatin-resistant ovarian cancer cell line A2780cis; survival (%) of cells with compound and cisplatin (20 μM): 17.9

Form: item O=C1NC(=S)NC(=O)C1=Cc1c[nH]c2ccccc12 ; test system cisplatin-resistant ovarian cancer cell line A2780cis; survival (%) of cells with compound and cisplatin (20 μM): 39.4

Form: item CCOCCCn1c(=S)[nH]c2c(C)cccc2c1=O ; test system cisplatin-resistant ovarian cancer cell line A2780cis; survival (%) of cells with compound and cisplatin (20 μM): 1.5

Origin of the recorded values: patent US10478437B2
